Entries and their measured pIC50 follow.
# Measurement Target: wild-type PPO2 enzyme (Helianthus annuus, UniProt A0A251TWC2)
# Sequence (A0A251TWC2 entry or part of it): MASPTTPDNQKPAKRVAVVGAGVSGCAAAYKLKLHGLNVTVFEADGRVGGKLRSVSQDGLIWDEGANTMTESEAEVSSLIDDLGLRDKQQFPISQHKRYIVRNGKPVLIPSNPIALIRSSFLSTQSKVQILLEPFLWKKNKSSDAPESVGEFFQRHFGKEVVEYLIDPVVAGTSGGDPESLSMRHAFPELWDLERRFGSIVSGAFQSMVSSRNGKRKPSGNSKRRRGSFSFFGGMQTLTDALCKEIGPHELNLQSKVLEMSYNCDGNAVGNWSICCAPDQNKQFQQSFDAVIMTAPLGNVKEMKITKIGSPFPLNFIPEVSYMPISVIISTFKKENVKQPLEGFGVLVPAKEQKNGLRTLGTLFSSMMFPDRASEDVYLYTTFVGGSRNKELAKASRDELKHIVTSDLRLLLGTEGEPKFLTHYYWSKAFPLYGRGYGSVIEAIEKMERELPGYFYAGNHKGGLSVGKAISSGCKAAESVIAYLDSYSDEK
# Measurement Protocol: In vitro PPO inhibition assay, wild type enzyme (Example 5)
# Type: biochemical, sunflower
pIC50 field: float, defined as -log10 of concentration (mol/L).

CC(C)N(C)S(=O)(=O)NC(=O)c1cc(-n2c(=O)cc(C(F)(F)F)n(C)c2=O)c(F)cc1Cl [Saflufenacil]    8.84

# context switch: different compound, same pIC50
Q. Recorded pIC50 for C#CCN1C(=O)C(F)(F)Oc2cc(F)c(-n3c(=O)n(C)c(=S)n(C)c3=O)cc21 [Trifludimoxazin (Tirexor ™)] , please?
A. 8.85

###

# Measurement Target: PPO2_F383I mutant PPO2 enzyme (Helianthus annuus, UniProt A0A251TWC2, F383I)
# Sequence (A0A251TWC2 entry or part of it F383I): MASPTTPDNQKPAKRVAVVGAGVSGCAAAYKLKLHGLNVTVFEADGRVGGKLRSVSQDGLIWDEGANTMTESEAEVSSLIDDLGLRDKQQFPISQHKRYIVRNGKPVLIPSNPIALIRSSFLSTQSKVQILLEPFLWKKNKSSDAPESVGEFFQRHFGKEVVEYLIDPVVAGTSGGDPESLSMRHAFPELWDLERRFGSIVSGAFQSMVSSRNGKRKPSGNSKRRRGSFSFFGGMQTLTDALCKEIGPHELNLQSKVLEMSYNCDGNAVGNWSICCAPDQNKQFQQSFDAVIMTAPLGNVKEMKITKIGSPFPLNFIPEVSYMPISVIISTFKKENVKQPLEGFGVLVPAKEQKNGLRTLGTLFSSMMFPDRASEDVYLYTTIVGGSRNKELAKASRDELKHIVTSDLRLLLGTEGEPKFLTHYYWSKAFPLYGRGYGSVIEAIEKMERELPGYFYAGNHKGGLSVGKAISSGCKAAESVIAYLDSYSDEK
# Measurement Protocol: In vitro PPO inhibition assay, mutant enzyme (Example 5)
# Format: biochemical, sunflower
# Protocol: To test whether the PPO2_F383I is the main cause of the observed saflufenacil tolerance, we used an in vitro to compare the inhibition potency (IC50) of different PPO inhibiting herbicides between wild-type and mutant PPO2 enzyme. […] Purified protein was mixed with different concentrations of the herbicide ranging from 10^−5M to 10^−11M and protein activity was measured. Protein activity is defined as the fluorescence per minute that the reaction generates. […]
Measurement Name: IC50 (µM)
Numbers only here, please. The scale is µM.

Q. Recorded IC50 for C#CCN1C(=O)C(F)(F)Oc2cc(F)c(-n3c(=O)n(C)c(=S)n(C)c3=O)cc21 [Trifludimoxazin (Tirexor ™)] , please?
A. 4.56
